Exercise: for every item that follows, state its recorded polymerase ribozyme fitness (log ratio).
B1: TPR 5TU (parent)
chain: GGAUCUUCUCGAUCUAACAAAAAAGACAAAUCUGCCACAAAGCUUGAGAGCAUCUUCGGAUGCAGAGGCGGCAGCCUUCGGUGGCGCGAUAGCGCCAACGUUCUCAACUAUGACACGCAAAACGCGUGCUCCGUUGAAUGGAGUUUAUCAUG

- Variants of: B1
- procedure_details: polymerase ribozyme fitness, log enrichment relative to wild type (log ratio); higher = more active; in vitro selection for triplet polymerase activity
Fewer inactive variants are shown than the library holds.

So, A23U C72U G83A U109A U151G ? Its polymerase ribozyme fitness (log ratio) was ≤ -4.2

So, U9A A23U C32G C54G G92U U101C G140U ? Its polymerase ribozyme fitness (log ratio) was ≤ -4.2

So, A16G A52C U53A G92C U109G A137C U139G ? Its polymerase ribozyme fitness (log ratio) was ≤ -4.2

So, A26G A29C G50A U90G ? Its polymerase ribozyme fitness (log ratio) was ≤ -4.2

So, A3C A23C G74A C85A C103U U130A ? Its polymerase ribozyme fitness (log ratio) was ≤ -4.2

So, A39C G68A A89G G128U A138G ? Its polymerase ribozyme fitness (log ratio) was ≤ -4.2

So, A22C U102G A110G ? Its polymerase ribozyme fitness (log ratio) was ≤ -4.2

So, C114A G140A U148G ? Its polymerase ribozyme fitness (log ratio) was ≤ -4.2

So, C87G A107G ? Its polymerase ribozyme fitness (log ratio) was ≤ -4.2

So, C5G C32A C76A U109G G141C ? Its polymerase ribozyme fitness (log ratio) was ≤ -4.2

So, G68U C85G U139A U145G U146G ? Its polymerase ribozyme fitness (log ratio) was ≤ -4.2

So, G62C C72A A91G A98G C123U ? Its polymerase ribozyme fitness (log ratio) was ≤ -4.2

So, G50A G70A C75A ? Its polymerase ribozyme fitness (log ratio) was ≤ -4.2

So, A16U A22C A30U U55A C57A C76G G81U G84C ? Its polymerase ribozyme fitness (log ratio) was ≤ -4.2

So, U13A A17G A49C A107G ? Its polymerase ribozyme fitness (log ratio) was ≤ -4.2

So, U33A G58C G92A G136U ? Its polymerase ribozyme fitness (log ratio) was ≤ -4.2

So, A3C A23U A41C C43U U61A A64C C96U A107C A115G ? Its polymerase ribozyme fitness (log ratio) was ≤ -4.2

So, A22G U56A C96G U101C G143A U148A ? Its polymerase ribozyme fitness (log ratio) was ≤ -4.2

So, C99A C131G ? Its polymerase ribozyme fitness (log ratio) was ≤ -4.2

So, G50C C54U C87A U135C U144C ? Its polymerase ribozyme fitness (log ratio) was ≤ -4.2

So, U55G U61G C76U C87A U101G U134G G136U ? Its polymerase ribozyme fitness (log ratio) was ≤ -4.2

So, G94C A106C C116U ? Its polymerase ribozyme fitness (log ratio) was -3.12

So, G50C G59U C118U ? Its polymerase ribozyme fitness (log ratio) was -2.35

So, C32A A37C C95U ? Its polymerase ribozyme fitness (log ratio) was ≤ -4.2

So, C32U G46U C103G U104G A107C G140C ? Its polymerase ribozyme fitness (log ratio) was ≤ -4.2

So, G80U C114U ? Its polymerase ribozyme fitness (log ratio) was -2.31

So, G50A C51G G83U G84A G141U ? Its polymerase ribozyme fitness (log ratio) was ≤ -4.2

So, C14G C27G G58A G86U U127C ? Its polymerase ribozyme fitness (log ratio) was -4.16

So, A115G U146A ? Its polymerase ribozyme fitness (log ratio) was -1.38

So, A22C C27G A37C A73G U146A G152U ? Its polymerase ribozyme fitness (log ratio) was ≤ -4.2

So, A12U U53A G141U ? Its polymerase ribozyme fitness (log ratio) was -1.08

So, C95U U104G ? Its polymerase ribozyme fitness (log ratio) was -2.11

So, A28G C57A U61A C76A G88A C93U U102G ? Its polymerase ribozyme fitness (log ratio) was ≤ -4.2

So, A22C A23G C93G C149U ? Its polymerase ribozyme fitness (log ratio) was ≤ -4.2

# credit: the RNAGym collection of RNA variant scans (doi:10.1073/pnas.2313332121)
